Tested on: Cerebellar granule neurone
procedure-details: Neurotoxicity in rat primary cerebellar granule neurons assessed as reduction in cell viability at 5 uM incubated for 24 hrs by MTT assay
Assay type: toxicity

molecule	Activity
CN(C)c1ccccc1/C=C1\SC(=O)NC1=O	Toxic
O=C1NC(=O)/C(=C/c2cc3ccccc3s2)S1	Toxic
CCc1ccc(CCOc2ccc(CC3SC(=O)NC3=O)cc2)nc1 (centres undefined) [PIOGLITAZONE]	Toxic
CN(C)c1cccc(/C=C2\SC(=O)NC2=O)c1	Toxic

###

Entries and their measured IC50 follow.
tgt: Glycogen synthase kinase-3 beta (Homo sapiens, UniProt P49841)
procedure-details: Inhibition of GSK3beta (unknown origin) pre-incubated for 30 mins followed by ULight-GS (Ser641/pSer657) peptide substrate addition and measured after 1 hr by TR-FRET assay
Sequence (P49841 whole entry): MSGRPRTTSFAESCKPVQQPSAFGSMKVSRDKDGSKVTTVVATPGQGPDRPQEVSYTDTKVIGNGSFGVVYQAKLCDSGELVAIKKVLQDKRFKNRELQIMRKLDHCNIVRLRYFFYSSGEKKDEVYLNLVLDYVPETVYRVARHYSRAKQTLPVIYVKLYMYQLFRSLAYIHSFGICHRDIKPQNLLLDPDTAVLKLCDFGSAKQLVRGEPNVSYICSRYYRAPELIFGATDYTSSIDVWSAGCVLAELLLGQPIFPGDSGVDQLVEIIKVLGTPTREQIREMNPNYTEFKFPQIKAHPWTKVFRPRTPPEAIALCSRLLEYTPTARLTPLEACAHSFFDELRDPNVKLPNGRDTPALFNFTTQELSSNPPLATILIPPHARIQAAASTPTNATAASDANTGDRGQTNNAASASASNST
Report the value in µM with no unit label.

smiles-structure	IC50 [µM]
O=C1NC(=O)/C(=C/c2c[nH]c3ccccc23)S1	21

Let's switch to this compound now.
QUERY: What IC50 appears in the records for this compound with Glycogen synthase kinase-3 beta (Homo sapiens, UniProt P49841)? "COc1ccc2c(c1)c(/C=C1\SC(=O)NC1=O)cn2C"
RESULT: 5.5

###

Entries and their measured inhibition follow.
tgt: Glycogen synthase kinase-3 beta (Homo sapiens, UniProt P49841)
procedure-details: Inhibition of GSK3beta (unknown origin) at 10 uM using GS-2 peptide substrate incubated for 30 mins by kinase-Glo luminescent assay
Sequence (P49841 whole entry, looked up): as the sequence (P49841 whole entry) above

Consider the worked cases shown below.
smiles-structure	value
O=C1NC(=O)/C(=C/c2ccc3ccccc3c2)S1	< 50%
O=C1NC(=O)/C(=C/c2ccc3c(c2)OCCO3)S1	> 50%
CN(C)c1ccc(/C=C/C=C2\SC(=O)NC2=O)cc1	< 50%
O=C1NC(=O)/C(=C/c2ccccc2OCc2ccccc2)S1	< 50%
COc1ccc2nc(Cl)c(/C=C3\SC(=O)NC3=O)cc2c1	> 50%

Let's switch to this compound now.
QUERY: Reported inhibition, compound "O=C1NC(=O)/C(=C/c2ccc(-c3ccccc3)cc2)S1" : ____
RESULT: < 50%

###

tgt: UniProt P49841
procedure-details: Inhibition of GSK3beta (unknown origin) at 10 uM using GS-2 peptide substrate incubated for 30 mins by kinase-Glo luminescent assay
Entries and their measured inhibition follow.

Consider the worked cases shown below.
smiles-structure	inhibition
O=C1NC(=O)/C(=C/c2cccs2)S1	> 50%
Cn1c(/C=C2\SC(=O)NC2=O)nc2ccccc21	< 50%
O=C1NC(=O)/C(=C/c2ccc(O)c([N+](=O)[O-])c2)S1	> 50%
O=C1NC(=O)/C(=C/c2ccco2)S1	< 50%
O=C1NC(=O)/C(=C/c2cc3ccccc3nc2Cl)S1	> 50%
O=C1NC(=O)/C(=C/c2ccccc2F)S1	< 50%
O=C1NC(=O)/C(=C/c2ccc(F)cc2)S1	< 50%

QUERY: What inhibition appears in the records for this compound with UniProt P49841? "COc1ccc(/C=C2\SC(=O)NC2=O)c(O)c1"
RESULT: > 50%

###

tgt: Glycogen synthase kinase-3 beta (Homo sapiens, UniProt P49841)
procedure-details: Inhibition of GSK3beta (unknown origin) at 10 uM using GS-2 peptide substrate incubated for 30 mins by kinase-Glo luminescent assay
Entries and their measured inhibition follow.

Consider the worked cases shown below.
smiles-structure	inhibition
O=C1NC(=O)/C(=C/c2cccnc2)S1	> 50%
COc1ccc2c(c1)c(/C=C1\SC(=O)NC1=O)cn2C	> 50%
O=C1NC(=O)/C(=C/c2c3ccccc3cc3ccccc23)S1	< 50%
COc1cc(/C=C2\SC(=O)NC2=O)ccc1O	> 50%
O=C1NC(=O)/C(=C/c2cc3ccccc3o2)S1	< 50%
COc1ccc2[nH]cc(/C=C3\SC(=O)NC3=O)c2c1	< 50%

QUERY: Reported inhibition, molecule "O=C1NC(=O)/C(=C/c2cc3ccccc3s2)S1" : ____
RESULT: > 50%

QUERY: Reported inhibition, molecule "CN(C)c1ccc(/C=C2\SC(=O)NC2=O)cc1" : ____
RESULT: < 50%

QUERY: Reported inhibition, molecule "CN(C)c1cccc(/C=C2\SC(=O)NC2=O)c1" : ____
RESULT: > 50%

QUERY: Reported inhibition, molecule "O=C1NC(=O)/C(=C/C=C/c2ccccc2)S1" : ____
RESULT: < 50%

QUERY: Reported inhibition, molecule "O=C1NC(=O)/C(=C/c2c(-c3ccccc3)[nH]c3ccccc23)S1" : ____
RESULT: > 50%

QUERY: Reported inhibition, molecule "O=C1NC(=O)/C(=C/c2ccccc2O)S1" : ____
RESULT: < 50%

QUERY: Reported inhibition, molecule "O=C1NC(=O)/C(=C/c2ccccn2)S1" : ____
RESULT: < 50%
